Hey, just so you know, these numbers are from ChEMBL document CHEMBL5316274.

# subject_of_test: Mu-type opioid receptor (Mus musculus) (UniProt P42866)
# Sequence (P42866 whole entry): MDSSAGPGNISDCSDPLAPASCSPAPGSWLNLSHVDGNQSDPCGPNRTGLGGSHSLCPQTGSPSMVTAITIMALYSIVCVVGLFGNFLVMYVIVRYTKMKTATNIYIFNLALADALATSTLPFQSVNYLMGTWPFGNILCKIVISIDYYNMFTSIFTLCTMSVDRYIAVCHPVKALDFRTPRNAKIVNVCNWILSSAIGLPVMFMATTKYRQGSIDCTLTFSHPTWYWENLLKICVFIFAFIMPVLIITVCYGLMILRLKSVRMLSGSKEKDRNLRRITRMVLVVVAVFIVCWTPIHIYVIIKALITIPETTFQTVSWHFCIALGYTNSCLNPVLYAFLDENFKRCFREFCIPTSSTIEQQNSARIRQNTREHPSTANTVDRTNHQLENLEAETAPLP
# protocol_details: Binding affinity to mouse mu opioid receptor expressed in CHO cell membrane assessed as stimulation of [35S]-GTPgammaS binding by measuring maximal efficacy incubated for 1.5 hrs by scintillation spectroscopy analysis relative DAMGO
# Format: cell membranes
Reported Emax values for the following molecules.
readout_label: Emax (%)

Cc1cc2cccc(C(=O)N[C@H]3CC[C@@]4(O)[C@H]5Cc6ccc(O)c7c6[C@@]4(CCN5CC4CC4)[C@H]3O7)c2[nH]1.Cl | 12
CC(=O)Nc1c[nH]c2c(C(=O)N[C@H]3CC[C@@]4(O)[C@H]5Cc6ccc(O)c7c6[C@@]4(CCN5CC4CC4)[C@H]3O7)cccc12 | 9.97
O=C(N[C@H]1CC[C@@]2(O)[C@H]3Cc4ccc(O)c5c4[C@@]2(CCN3CC2CC2)[C@H]1O5)c1cccc2c(C3CCCCC3)c[nH]c12 | 20.5
O=C(N[C@H]1CC[C@@]2(O)[C@H]3Cc4ccc(O)c5c4[C@@]2(CCN3CC2CC2)[C@H]1O5)c1cccc2c(Cl)c[nH]c12 | 13.2
O=C(N[C@H]1CC[C@@]2(O)[C@H]3Cc4ccc(O)c5c4[C@@]2(CCN3CC2CC2)[C@H]1O5)c1cccc2c(-c3ccccc3)c[nH]c12 | 5.57
Cc1c[nH]c2c(C(=O)N[C@H]3CC[C@@]4(O)[C@H]5Cc6ccc(O)c7c6[C@@]4(CCN5CC4CC4)[C@H]3O7)cccc12 | 15.7
O=C(N[C@H]1CC[C@@]2(O)[C@H]3Cc4ccc(O)c5c4[C@@]2(CCN3CC2CC2)[C@H]1O5)c1cccc2cc(-c3ccccc3)[nH]c12 | 7.44
Cc1cc2cccc(C(=O)N[C@@H]3CC[C@@]4(O)[C@H]5Cc6ccc(O)c7c6[C@@]4(CCN5CC4CC4)[C@H]3O7)c2[nH]1 | 21.8
O=C(N[C@H]1CC[C@@]2(O)[C@H]3Cc4ccc(O)c5c4[C@@]2(CCN3CC2CC2)[C@H]1O5)c1cccc2c(Br)c[nH]c12 | 14.9
N#Cc1c[nH]c2c(C(=O)N[C@H]3CC[C@@]4(O)[C@H]5Cc6ccc(O)c7c6[C@@]4(CCN5CC4CC4)[C@H]3O7)cccc12 | 11.4
O=C(N[C@@H]1CC[C@@]2(O)[C@H]3Cc4ccc(O)c5c4[C@@]2(CCN3CC2CC2)[C@H]1O5)c1cccc2c(-c3ccccc3)c[nH]c12 | 8.47
N#Cc1cc2cccc(C(=O)N[C@H]3CC[C@@]4(O)[C@H]5Cc6ccc(O)c7c6[C@@]4(CCN5CC4CC4)[C@H]3O7)c2[nH]1 | 14.4
O=C(N[C@@H]1CC[C@@]2(O)[C@H]3Cc4ccc(O)c5c4[C@@]2(CCN3CC2CC2)[C@H]1O5)c1cccc2c(C3CCCC3)c[nH]c12 | 21.3

* * *

# subject_of_test: Mu-type opioid receptor (Mus musculus) (UniProt P42866)
# protocol_details: Binding affinity to mouse mu opioid receptor expressed in CHO cell membrane assessed as stimulation of [35S]-GTPgammaS binding by measuring maximal efficacy incubated for 1.5 hrs by scintillation spectroscopy analysis relative DAMGO
# Type: cell membranes
readout_label: Emax (%)

CC(C)c1c[nH]c2c(C(=O)N[C@H]3CC[C@@]4(O)[C@H]5Cc6ccc(O)c7c6[C@@]4(CCN5CC4CC4)[C@H]3O7)cccc12 | 8.37
O=Cc1c[nH]c2c(C(=O)N[C@@H]3CC[C@@]4(O)[C@H]5Cc6ccc(O)c7c6[C@@]4(CCN5CC4CC4)[C@H]3O7)cccc12 | 21.3
O=C(N[C@H]1CC[C@@]2(O)[C@H]3Cc4ccc(O)c5c4[C@@]2(CCN3CC2CC2)[C@H]1O5)c1cccc2cc(Cl)[nH]c12 | 14.8
O=C(N[C@@H]1CC[C@@]2(O)[C@H]3Cc4ccc(O)c5c4[C@@]2(CCN3CC2CC2)[C@H]1O5)c1cccc2cc(Br)[nH]c12 | 36.2
CC(=O)c1c[nH]c2c(C(=O)N[C@@H]3CC[C@@]4(O)[C@H]5Cc6ccc(O)c7c6[C@@]4(CCN5CC4CC4)[C@H]3O7)cccc12 | 10.9
O=C(N[C@@H]1CC[C@@]2(O)[C@H]3Cc4ccc(O)c5c4[C@@]2(CCN3CC2CC2)[C@H]1O5)c1cccc2cc(-c3ccccc3)[nH]c12 | 10.2
